molecular target: angiotensin-converting enzyme (ACE) (UniProt P12822)
Sequence (P12822 whole entry): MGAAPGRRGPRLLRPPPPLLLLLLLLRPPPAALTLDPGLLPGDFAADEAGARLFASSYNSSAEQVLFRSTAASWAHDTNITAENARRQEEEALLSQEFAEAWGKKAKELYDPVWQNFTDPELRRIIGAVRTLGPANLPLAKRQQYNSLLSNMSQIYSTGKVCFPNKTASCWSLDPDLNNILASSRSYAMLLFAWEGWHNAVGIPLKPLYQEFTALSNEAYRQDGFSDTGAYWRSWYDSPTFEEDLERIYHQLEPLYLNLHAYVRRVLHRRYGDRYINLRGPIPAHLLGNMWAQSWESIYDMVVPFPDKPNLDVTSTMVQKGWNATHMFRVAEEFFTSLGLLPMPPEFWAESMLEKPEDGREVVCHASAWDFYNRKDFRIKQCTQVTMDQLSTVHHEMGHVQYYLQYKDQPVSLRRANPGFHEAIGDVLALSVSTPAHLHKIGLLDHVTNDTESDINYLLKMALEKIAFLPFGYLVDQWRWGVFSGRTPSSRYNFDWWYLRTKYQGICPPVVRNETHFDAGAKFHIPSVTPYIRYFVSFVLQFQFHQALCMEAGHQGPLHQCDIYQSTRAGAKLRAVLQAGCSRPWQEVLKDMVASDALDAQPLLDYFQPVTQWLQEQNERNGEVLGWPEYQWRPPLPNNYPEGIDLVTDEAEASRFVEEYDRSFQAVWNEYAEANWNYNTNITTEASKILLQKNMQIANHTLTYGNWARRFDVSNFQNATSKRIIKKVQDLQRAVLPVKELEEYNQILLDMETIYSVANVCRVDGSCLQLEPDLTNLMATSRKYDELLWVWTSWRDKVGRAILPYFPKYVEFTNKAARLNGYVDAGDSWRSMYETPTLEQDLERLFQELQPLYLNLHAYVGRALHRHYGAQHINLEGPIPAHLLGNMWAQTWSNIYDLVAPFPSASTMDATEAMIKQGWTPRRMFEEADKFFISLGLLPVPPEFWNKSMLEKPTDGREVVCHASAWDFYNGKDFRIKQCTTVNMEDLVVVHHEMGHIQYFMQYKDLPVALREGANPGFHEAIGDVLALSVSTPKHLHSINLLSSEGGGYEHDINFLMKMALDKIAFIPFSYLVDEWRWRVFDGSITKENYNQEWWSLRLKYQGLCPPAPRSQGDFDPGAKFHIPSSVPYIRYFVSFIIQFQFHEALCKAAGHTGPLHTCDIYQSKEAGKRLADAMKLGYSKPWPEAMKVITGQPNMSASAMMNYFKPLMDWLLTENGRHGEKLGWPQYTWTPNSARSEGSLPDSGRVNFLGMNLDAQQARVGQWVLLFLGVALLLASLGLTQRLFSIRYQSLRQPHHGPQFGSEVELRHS
hey, just use Condition met if measured IC50 is less than 30 nM, otherwise Condition not met

Observe how each entry below is paired with its result.
>  <compound>
C[C@H](NC(=O)c1cc(O)c(O)c(O)c1)C(=O)N1CCC[C@H]1C(=O)OC1CC2CCC1(C)C2(C)C (stereo partly drawn) [Compound 221S-31a]

>  <classAssignment>
Condition not met

$$$$
>  <compound>
C[C@H](NC(=O)c1ccc(O)c(O)c1)C(=O)N1CCC[C@H]1C(=O)OC1CC2CCC1(C)C2(C)C (stereo partly drawn) [Compound 221S-30a]

>  <classAssignment>
Condition not met

$$$$
>  <compound>
C[C@H](NC(=O)Cc1ccc(O)c(O)c1)C(=O)N1CCC[C@H]1C(=O)OC1CC2CCC1(C)C2(C)C (stereo partly drawn) [Compound 221S-29a]

>  <classAssignment>
Condition not met

$$$$
>  <compound>
C[C@H](NC(=O)/C=C/c1ccc(O)c(O)c1)C(=O)N1CCC[C@H]1C(=O)OC1CC2CCC1(C)C2(C)C (stereo partly drawn) [Compound 221S-28a]

>  <classAssignment>
Condition met

$$$$
>  <compound>
C[C@H](NC(=O)[C@@H](O)Cc1ccc(O)c(O)c1)C(=O)N1CCC[C@H]1C(=O)OC1CC2CCC1(C)C2(C)C (stereo partly drawn) [Compound 221S-1b]

>  <classAssignment>
Condition not met

$$$$
>  <compound>
CC1(C)C2CCC1(C)C(OC(=O)[C@@H]1CCCN1C(=O)CNC(=O)[C@H](O)Cc1ccc(O)c(O)c1)C2 (stereo partly drawn) [Compound 221S-15a]

>  <classAssignment>
Condition not met

$$$$
>  <compound>
CCC(C)[C@H](NC(=O)[C@H](O)Cc1ccc(O)c(O)c1)C(=O)N1CCC[C@H]1C(=O)OC1CC2CCC1(C)C2(C)C (stereo partly drawn) [Compound 221S-4a]

>  <classAssignment>
Condition not met

$$$$
>  <compound>
COc1cc(/C=C/C(=O)N[C@@H](C)C(=O)N2CCC[C@H]2C(=O)OC2CC3CCC2(C)C3(C)C)ccc1O (stereo partly drawn) [Compound 221S-27a]

>  <classAssignment>
Condition not met

$$$$

Check if IC50 falls below 30 nM for C[C@H](NC(=O)[C@H](O)Cc1ccc(O)c(O)c1)C(=O)N1CCC[C@H]1C(=O)OC1CC2CCC1(C)C2(C)C (stereo partly drawn) [Compound 221S-1a] .
Condition met

Check if IC50 falls below 30 nM for CSCC[C@H](NC(=O)[C@H](O)Cc1ccc(O)c(O)c1)C(=O)N1CCC[C@H]1C(=O)OC1CC2CCC1(C)C2(C)C (stereo partly drawn) [Compound 221S-7a] .
Condition not met

Check if IC50 falls below 30 nM for CC(C)[C@H](NC(=O)[C@H](O)Cc1ccc(O)c(O)c1)C(=O)N1CCC[C@H]1C(=O)OC1CC2CCC1(C)C2(C)C (stereo partly drawn) [Compound 221S-2a] .
Condition not met

Check if IC50 falls below 30 nM for CC(C)(C)[C@H](NC(=O)[C@H](O)Cc1ccc(O)c(O)c1)C(=O)N1CCC[C@H]1C(=O)OC1CC2CCC1(C)C2(C)C (stereo partly drawn) [Compound 221S-5a] .
Condition met

* * *

test system: mouse ACE; test: In vivo ACE activity test: ACE content in kidney tissue by double antibody sandwich ELISA; parameters: species or system Kunming mice; conditions: male Kunming mice, kidney homogenate, intragastric 0.05 mmol/kg once a day for 7 days, 2 h after final dose
propertyLabel: ACE content
Please format your answer as a value with the unit trailing.

>  <molecule>
CC(C)C[C@H](NC(=O)[C@H](O)Cc1ccc(O)c(O)c1)C(=O)N1CCC[C@H]1C(=O)OC1CC2CCC1(C)C2(C)C (stereo partly drawn) [Compound 221S-3a]

>  <ACE content>
79 ± 7 pg/mL

$$$$
>  <molecule>
CC1(C)C2CCC1(C)C(OC(=O)[C@@H]1CCCN1C(=O)[C@H](Cc1ccccc1)NC(=O)[C@H](O)Cc1ccc(O)c(O)c1)C2 (stereo partly drawn) [Compound 221S-8a]

>  <ACE content>
80 ± 7 pg/mL

$$$$
>  <molecule>
COc1cc(/C=C/C(=O)N[C@@H](C)C(=O)N2CCC[C@H]2C(=O)OC2CC3CCC2(C)C3(C)C)ccc1O (stereo partly drawn) [Compound 221S-27a]

>  <ACE content>
82 ± 11 pg/mL

$$$$
>  <molecule>
C[C@H](NC(=O)/C=C/c1ccc(O)c(O)c1)C(=O)N1CCC[C@H]1C(=O)OC1CC2CCC1(C)C2(C)C (stereo partly drawn) [Compound 221S-28a]

>  <ACE content>
79 ± 8 pg/mL

$$$$
>  <molecule>
CCC(C)[C@H](NC(=O)[C@H](O)Cc1ccc(O)c(O)c1)C(=O)N1CCC[C@H]1C(=O)OC1CC2CCC1(C)C2(C)C (stereo partly drawn) [Compound 221S-4a]

>  <ACE content>
82 ± 10 pg/mL

$$$$

API: the following record is the query input.
GET /value?item= C[C@H](NC(=O)Cc1ccc(O)c(O)c1)C(=O)N1CCC[C@H]1C(=O)OC1CC2CCC1(C)C2(C)C (stereo partly drawn) [Compound 221S-29a] &field=ACE content returns 85 ± 8 pg/mL

* * *

test system: mouse ACE; test: In vivo ACE activity test: ACE content in kidney tissue by double antibody sandwich ELISA; parameters: species or system Kunming mice; settings: male Kunming mice, kidney homogenate, intragastric 0.05 mmol/kg once a day for 7 days, 2 h after final dose
Reported ACE content values for the following molecules.
Hi! Could you send only the number? It should be in pg/mL, unit omitted.

>  <molecule>
C[C@H](NC(=O)c1ccc(O)c(O)c1)C(=O)N1CCC[C@H]1C(=O)OC1CC2CCC1(C)C2(C)C (stereo partly drawn) [Compound 221S-30a]

>  <ACE content / pg/mL>
75

$$$$

API: the following record is the query input.
GET /value?item= CC(C)(C)[C@H](NC(=O)[C@H](O)Cc1ccc(O)c(O)c1)C(=O)N1CCC[C@H]1C(=O)OC1CC2CCC1(C)C2(C)C (stereo partly drawn) [Compound 221S-5a] &field=ACE content returns 89

* * *

Reported ACE content values for the following molecules.
test system: mouse ACE; assay: In vivo ACE activity test: ACE content in kidney tissue by double antibody sandwich ELISA; parameters: species or system Kunming mice; conditions: male Kunming mice, kidney homogenate, intragastric 0.05 mmol/kg once a day for 7 days, 2 h after final dose
Hi! Could you send only the number? It should be in pg/mL, unit omitted.

GET /value?item= CC1(C)C2CCC1(C)C(OC(=O)[C@@H]1CCCN1C(=O)[C@@H]1CCCN1C(=O)[C@H](O)Cc1ccc(O)c(O)c1)C2 (stereo in doubt) [Compound 221S-6a] &field=ACE content returns 76

GET /value?item= CSCC[C@H](NC(=O)[C@H](O)Cc1ccc(O)c(O)c1)C(=O)N1CCC[C@H]1C(=O)OC1CC2CCC1(C)C2(C)C (stereo partly drawn) [Compound 221S-7a] &field=ACE content returns 71

GET /value?item= CC1(C)C2CCC1(C)C(OC(=O)[C@@H]1CCCN1C(=O)CNC(=O)[C@H](O)Cc1ccc(O)c(O)c1)C2 (stereo partly drawn) [Compound 221S-15a] &field=ACE content returns 83

* * *

system: mouse ACE; assay: In vivo ACE activity test: ACE content in kidney tissue by double antibody sandwich ELISA; design: species or system Kunming mice; conditions: male Kunming mice, kidney homogenate, intragastric 0.05 mmol/kg once a day for 7 days, 2 h after final dose
propertyLabel: ACE content (pg/mL)
Hi! Could you send only the number? It should be in pg/mL, unit omitted.

Below, each entry is followed by its recorded ACE content result.
>  <compound>
C[C@H](NC(=O)c1cc(O)c(O)c(O)c1)C(=O)N1CCC[C@H]1C(=O)OC1CC2CCC1(C)C2(C)C (stereo partly drawn) [Compound 221S-31a]

>  <ACE content (pg/mL)>
71

$$$$
>  <compound>
C[C@H](NC(=O)[C@H](O)Cc1ccc(O)c(O)c1)C(=O)N1CCC[C@H]1C(=O)OC1CC2CCC1(C)C2(C)C (stereo partly drawn) [Compound 221S-1a]

>  <ACE content (pg/mL)>
64

$$$$
>  <compound>
C[C@H](NC(=O)[C@@H](O)Cc1ccc(O)c(O)c1)C(=O)N1CCC[C@H]1C(=O)OC1CC2CCC1(C)C2(C)C (stereo partly drawn) [Compound 221S-1b]

>  <ACE content (pg/mL)>
78

$$$$

API: the following record is the query input.
GET /value?item= CC(C)[C@H](NC(=O)[C@H](O)Cc1ccc(O)c(O)c1)C(=O)N1CCC[C@H]1C(=O)OC1CC2CCC1(C)C2(C)C (stereo partly drawn) [Compound 221S-2a] &field=ACE content returns 87
